These data points were gathered from ChEMBL document CHEMBL1671650.

Assay: Cytotoxicity against staphylococcal enterotoxin B-stimulated human PBMC cells
Type: cell-based
Readout kind: CC50
The reply should consist of the numeric value with the unit placed after it.

// query Assign CC50 to the following record: `COc1ccc2c(O[C@@H]3C[C@H]4C(=O)N[C@]5(C(=O)NS(=O)(=O)C6CC6)C[C@H]5/C=C\CCCCN(C)C(=O)[C@@H]4C3)cc(-c3nc(C(C)C)cs3)nc2c1C`
// result 33 µM

###

Assay: Ratio of AUC (0 to 31 hrs) in Sprague-Dawley rat adrenal gland to AUC (0 to 31 hrs) in Sprague-Dawley rat plasma at 40 mg/kg, po administered as single dose
Assay type: ADME, organism-based
Design: dose 40 mg/kg, route oral
Readout kind: Kp

// query Supply measured Kp of `COc1ccc2c(O[C@@H]3C[C@H]4C(=O)N[C@]5(C(=O)NS(=O)(=O)C6CC6)C[C@H]5/C=C\CCCCN(C)C(=O)[C@@H]4C3)cc(-c3nc(C(C)C)cs3)nc2c1C` in your reply.
// result 0.5
